// protein stability index lookup, one value per entry
B1: TRAF3IP2 (parent)
chain: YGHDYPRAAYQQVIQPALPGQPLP

# Variants of: B1
# PROCEDURE DETAILS: protein stability index of a GFP-peptide fusion (GPS, HEK-293T) (PSI 1-6); higher = more stable;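 note: lentivirally expressed fusions sorted by FACS into six bins by GFP to DsRed ratio, PSI derived from sequencing read proportions per bin multiplied by bin number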
# CONDITION DESCRIPTION: c terminus: a fixed tail appended
// no unit string in output, number only

(Q) Given `Y10I` , respond with its protein stability index.
(A) 2.02

(Q) Given `A17E` , respond with its protein stability index.
(A) 2

(Q) Given `H3D` , respond with its protein stability index.
(A) 2.02

(Q) Given `Q21S` , respond with its protein stability index.
(A) 1.99

(Q) Given `L23S` , respond with its protein stability index.
(A) 2.02

Next:
(Q) Given `G2I` , respond with its protein stability index.
(A) 1.97

(Q) Given `I14E` , respond with its protein stability index.
(A) 2
